EXPERIMENTAL TARGET: Shaker K+ channel (Drosophila melanogaster, UniProt P08510, DEL6-46)
Construct: expressed in transfected cells; host or cells: Xenopus laevis oocytes injected with in vitro transcribed cRNA (cDNA clone from the Bezanilla laboratory)
Sequence (P08510 other isoform, or with tags, fused parts or gaps DEL6-46): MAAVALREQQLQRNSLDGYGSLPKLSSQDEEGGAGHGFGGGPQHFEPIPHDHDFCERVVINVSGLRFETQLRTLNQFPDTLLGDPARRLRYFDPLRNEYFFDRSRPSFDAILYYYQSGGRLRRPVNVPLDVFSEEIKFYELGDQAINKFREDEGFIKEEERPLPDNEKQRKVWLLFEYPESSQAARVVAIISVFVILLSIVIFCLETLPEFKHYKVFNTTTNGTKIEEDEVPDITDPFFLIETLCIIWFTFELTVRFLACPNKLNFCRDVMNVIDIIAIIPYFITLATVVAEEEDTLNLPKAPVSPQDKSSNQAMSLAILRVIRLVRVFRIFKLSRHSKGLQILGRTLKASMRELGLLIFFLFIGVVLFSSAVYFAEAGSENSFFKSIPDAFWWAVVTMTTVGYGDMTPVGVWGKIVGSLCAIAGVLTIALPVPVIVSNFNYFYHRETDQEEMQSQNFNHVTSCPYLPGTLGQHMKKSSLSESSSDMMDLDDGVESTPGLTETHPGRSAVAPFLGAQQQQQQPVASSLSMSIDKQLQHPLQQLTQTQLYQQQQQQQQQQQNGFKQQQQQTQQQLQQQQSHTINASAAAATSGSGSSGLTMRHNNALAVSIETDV
TEST: cell-based
Format: cell-based, D. melanogaster
COND: 0 mV, pH 9.1, Hill fit; read-out: IC50
ATTRIBUTE MEASURED: IC50 (µM)
Answers are plain numbers, in µM.

COMPOUND	ATTRIBUTE MEASURED	QUANTITATIVE READOUT
Nc1ccnc(C(F)(F)F)c1 [2CF34AP, 2-trifluoromethyl-4-aminopyridine]	IC50	18200
COc1cnccc1N	IC50	492

# query: IC50 of entry Nc1ccncc1F [3F4AP, 3-fluoro-4-aminopyridine, reference compound] 185

----------
Exercise: for every item that follows, state its recorded IC50.
EXPERIMENTAL TARGET: Shaker K+ channel (Drosophila melanogaster, UniProt P08510, DEL6-46)
Construct: expressed in transfected cells; host or cells: Xenopus laevis oocytes injected with in vitro transcribed cRNA (cDNA clone from the Bezanilla laboratory)
TEST: cell-based
Assay type: cell-based, D. melanogaster
COND: IC50 at V = 0 mV (Woodhull parameter), fit of IC50 vs voltage curves (10 to 50 mV) with Woodhull model; mean ± SD
Returns: string containing the numeric result and its unit.

COMPOUND	EXPERIMENTAL TARGET	IC50
Nc1ccncc1C(F)(F)F [3CF34AP, 3-trifluoromethyl-4-aminopyridine]	Shaker K+ channel (Drosophila melanogaster, UniProt P08510, DEL6-46)	516 µM

Request the reported IC50 associated with Cc1cnccc1N 21 µM

----------
EXPERIMENTAL TARGET: Shaker K+ channel (Drosophila melanogaster, UniProt P08510, DEL6-46)
Construct: expressed in transfected cells; host or cells: Xenopus laevis oocytes injected with in vitro transcribed cRNA (cDNA clone from the Bezanilla laboratory)
TEST: cell-based
Assay type: cell-based, D. melanogaster
COND: 0 mV, pH 7.4, Hill fit; read-out: IC50
ATTRIBUTE MEASURED: IC50 (µM)
Numbers only, in µM.

See these solved cases before continuing.
MOLECULE	EXPERIMENTAL TARGET	IC50 (µM)
Nc1ccncc1F [3F4AP, 3-fluoro-4-aminopyridine, reference compound]	Shaker K+ channel (Drosophila melanogaster, UniProt P08510, DEL6-46)	160
Nc1ccnc(C(F)(F)F)c1 [2CF34AP, 2-trifluoromethyl-4-aminopyridine]	Shaker K+ channel (Drosophila melanogaster, UniProt P08510, DEL6-46)	11900

As a next step, examine the molecule that follows.
Which IC50 is listed for COc1cnccc1N [3MeO4AP, 3-methoxy-4-aminopyridine] ? 355

----------
TEST: Octanol-water partition coefficient (logD) at pH 7.4, modified shake flask method
Format: physicochemical
COND: 1-octanol/PBS, pH 7.4, octanol/water (PBS), pH 7.4, 4 replicates; read-out: logD
ATTRIBUTE MEASURED: logD
Numbers only.

Recorded results for 3 compounds are shown here.
COMPOUND	QUANTITATIVE READOUT
COc1cnccc1N [3MeO4AP, 3-methoxy-4-aminopyridine]	-0.76
Nc1ccnc(C(F)(F)F)c1 [2CF34AP, 2-trifluoromethyl-4-aminopyridine]	1.48
Nc1ccncc1F [3F4AP, 3-fluoro-4-aminopyridine, reference compound]	0.41

// switching to the query compound
Field request: logD | item: Nc1ccncc1C(F)(F)F [3CF34AP, 3-trifluoromethyl-4-aminopyridine] 0.91

Source of measurements: paper PMC6952366
